MEASUREMENT TARGET: Proto-oncogene tyrosine-protein kinase ROS (Homo sapiens)
Sequence (P08922 whole entry): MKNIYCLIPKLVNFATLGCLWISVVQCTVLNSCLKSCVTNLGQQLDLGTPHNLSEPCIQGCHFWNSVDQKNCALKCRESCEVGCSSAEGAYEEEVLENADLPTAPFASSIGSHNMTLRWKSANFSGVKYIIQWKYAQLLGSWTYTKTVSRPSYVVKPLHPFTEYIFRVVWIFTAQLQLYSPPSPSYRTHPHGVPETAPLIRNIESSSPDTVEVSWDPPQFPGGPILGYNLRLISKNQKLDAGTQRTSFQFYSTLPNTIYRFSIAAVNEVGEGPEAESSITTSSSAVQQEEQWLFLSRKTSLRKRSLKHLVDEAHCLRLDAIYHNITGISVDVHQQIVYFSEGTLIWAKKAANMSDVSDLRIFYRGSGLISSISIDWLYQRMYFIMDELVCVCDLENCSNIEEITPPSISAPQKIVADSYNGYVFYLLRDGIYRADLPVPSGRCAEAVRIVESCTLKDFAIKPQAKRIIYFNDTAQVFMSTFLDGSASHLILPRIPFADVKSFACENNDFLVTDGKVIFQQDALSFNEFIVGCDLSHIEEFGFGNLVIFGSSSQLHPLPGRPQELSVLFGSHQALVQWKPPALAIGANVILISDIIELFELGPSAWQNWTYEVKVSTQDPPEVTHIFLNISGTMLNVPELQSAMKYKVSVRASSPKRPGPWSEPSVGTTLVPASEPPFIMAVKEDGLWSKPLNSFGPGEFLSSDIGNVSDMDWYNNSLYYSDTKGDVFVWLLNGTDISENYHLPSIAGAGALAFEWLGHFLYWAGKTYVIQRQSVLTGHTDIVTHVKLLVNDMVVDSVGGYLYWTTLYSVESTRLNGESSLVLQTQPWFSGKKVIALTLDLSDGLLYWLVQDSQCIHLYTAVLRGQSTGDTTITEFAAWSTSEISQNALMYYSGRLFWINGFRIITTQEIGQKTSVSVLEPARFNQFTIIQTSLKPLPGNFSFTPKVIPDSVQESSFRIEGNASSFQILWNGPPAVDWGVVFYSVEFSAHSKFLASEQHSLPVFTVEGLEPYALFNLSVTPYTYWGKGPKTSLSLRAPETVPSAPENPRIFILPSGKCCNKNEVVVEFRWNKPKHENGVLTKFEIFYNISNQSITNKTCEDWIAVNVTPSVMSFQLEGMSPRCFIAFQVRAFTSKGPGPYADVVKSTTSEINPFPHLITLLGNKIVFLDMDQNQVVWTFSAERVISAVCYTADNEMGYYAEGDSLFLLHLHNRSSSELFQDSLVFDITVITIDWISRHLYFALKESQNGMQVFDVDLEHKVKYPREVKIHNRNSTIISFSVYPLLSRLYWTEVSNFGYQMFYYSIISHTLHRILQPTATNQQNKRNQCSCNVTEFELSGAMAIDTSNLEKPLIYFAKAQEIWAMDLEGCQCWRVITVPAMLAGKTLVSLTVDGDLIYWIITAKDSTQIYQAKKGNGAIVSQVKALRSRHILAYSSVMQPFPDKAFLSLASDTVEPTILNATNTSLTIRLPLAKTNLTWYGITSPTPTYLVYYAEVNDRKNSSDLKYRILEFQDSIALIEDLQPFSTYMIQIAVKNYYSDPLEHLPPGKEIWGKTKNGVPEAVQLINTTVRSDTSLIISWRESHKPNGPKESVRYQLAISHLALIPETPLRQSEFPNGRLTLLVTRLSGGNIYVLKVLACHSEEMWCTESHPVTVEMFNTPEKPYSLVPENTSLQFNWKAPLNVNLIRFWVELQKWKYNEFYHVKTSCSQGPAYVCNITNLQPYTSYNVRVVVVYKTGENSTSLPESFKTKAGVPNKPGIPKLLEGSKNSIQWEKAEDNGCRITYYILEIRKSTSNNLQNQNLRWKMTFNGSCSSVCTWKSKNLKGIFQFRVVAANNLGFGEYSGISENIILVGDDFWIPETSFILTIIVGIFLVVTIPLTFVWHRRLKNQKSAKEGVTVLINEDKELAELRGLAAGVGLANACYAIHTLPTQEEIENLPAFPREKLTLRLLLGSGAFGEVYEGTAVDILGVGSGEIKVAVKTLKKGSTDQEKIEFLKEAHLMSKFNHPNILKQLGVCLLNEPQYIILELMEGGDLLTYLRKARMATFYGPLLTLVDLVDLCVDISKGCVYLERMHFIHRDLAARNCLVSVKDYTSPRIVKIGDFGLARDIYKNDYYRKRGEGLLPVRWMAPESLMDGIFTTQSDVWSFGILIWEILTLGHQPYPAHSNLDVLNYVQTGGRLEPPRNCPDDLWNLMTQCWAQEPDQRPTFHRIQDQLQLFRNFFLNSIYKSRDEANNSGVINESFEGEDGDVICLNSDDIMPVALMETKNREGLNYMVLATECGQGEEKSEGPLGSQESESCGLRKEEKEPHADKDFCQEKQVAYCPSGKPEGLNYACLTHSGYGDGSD
PROCEDURE DETAILS: Inhibitory Activity of the Compounds of the Invention Against ROS1, NTRK and ALK and their Drug-Resistant Kinases
RECORDED METRIC: IC50

Form: compound = C[C@@H](Oc1ccn2ncc(C3=NOC(C)(C)N3)c2n1)c1c(Cl)ccc(F)c1Cl ; IC50 = < 0.5 nM

----------
MEASUREMENT TARGET: NT-3 growth factor receptor (Homo sapiens)
Sequence (Q16288 whole entry): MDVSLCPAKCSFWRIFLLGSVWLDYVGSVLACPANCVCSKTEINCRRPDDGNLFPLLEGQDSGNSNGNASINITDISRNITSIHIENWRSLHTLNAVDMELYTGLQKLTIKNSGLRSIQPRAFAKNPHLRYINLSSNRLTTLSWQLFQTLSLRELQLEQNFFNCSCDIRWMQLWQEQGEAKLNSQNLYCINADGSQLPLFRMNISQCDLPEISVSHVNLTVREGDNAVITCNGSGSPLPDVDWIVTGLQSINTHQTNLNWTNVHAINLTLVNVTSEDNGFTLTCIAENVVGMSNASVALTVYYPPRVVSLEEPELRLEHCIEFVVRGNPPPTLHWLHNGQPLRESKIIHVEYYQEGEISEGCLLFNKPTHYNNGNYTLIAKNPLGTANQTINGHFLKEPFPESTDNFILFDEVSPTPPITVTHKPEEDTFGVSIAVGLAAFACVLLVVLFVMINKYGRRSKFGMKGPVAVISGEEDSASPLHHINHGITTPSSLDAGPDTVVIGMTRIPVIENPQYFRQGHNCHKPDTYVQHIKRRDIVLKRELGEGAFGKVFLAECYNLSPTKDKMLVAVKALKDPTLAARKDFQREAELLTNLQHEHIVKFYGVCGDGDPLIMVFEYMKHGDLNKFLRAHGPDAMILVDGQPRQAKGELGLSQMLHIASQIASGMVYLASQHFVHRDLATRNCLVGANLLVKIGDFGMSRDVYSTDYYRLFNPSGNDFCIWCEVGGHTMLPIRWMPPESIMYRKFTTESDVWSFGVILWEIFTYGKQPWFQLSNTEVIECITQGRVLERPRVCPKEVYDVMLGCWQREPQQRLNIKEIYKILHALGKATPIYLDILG
PROCEDURE DETAILS: Inhibitory Activity of the Compounds of the Invention Against ROS1, NTRK and ALK and their Drug-Resistant Kinases
RECORDED METRIC: IC50

Looking up C[C@@H](Oc1ccn2ncc(C3=NOC(C)(C)N3)c2n1)c1c(Cl)ccc(F)c1Cl [US12435089, Example 9] , I see its IC50 listed as < 0.5 nM
